Tested on: 883617-216-R-J1-PDC complex spheroid viability
method_summary: Anticancer human tumor 883617-216-R-J1-PDC patient-derived bladder carcinoma cell line growth inhibition [POLQ]
experimental_parameters: second compound 0.0316 µM; first compound 0.0316 µM; stronger effect = lower value
readout_type: viability, T/C (%)
State just the number; it will be interpreted in %.

Enter viability, T/C (test system 883617-216-R-J1-PDC complex spheroid viability) for CNCc1ccc(-c2[nH]c3cc(F)cc4c3c2CCNC4=O)cc1 + COC1C(OC(N)=O)C(O)C(Oc2ccc3c(O)c(NC(=O)c4ccc(O)c(CC=C(C)C)c4)c(=O)oc3c2C)OC1(C)C 109

Enter viability, T/C (test system 883617-216-R-J1-PDC complex spheroid viability) for CCc1cc2c(N3CCc4c(cc(Cn5ccnc5)cc4-c4cn(C)nc4C(F)(F)F)C3=O)ccnc2c(OC)n1 + Cc1cccc(N(C)C(=O)C2C(O)CCN2c2nc(C)cc(C(F)(F)F)c2C#N)c1 91.7

Enter viability, T/C (test system 883617-216-R-J1-PDC complex spheroid viability) for C=CC(=O)N1CCN(c2nc(=O)n(-c3c(C)ccnc3C(C)C)c3nc(-c4c(O)cccc4F)c(F)cc23)C(C)C1 (stereo not drawn) + Cc1cccc(N(C)C(=O)C2C(O)CCN2c2nc(C)cc(C(F)(F)F)c2C#N)c1 72.4

----------
Test system: 883617-216-R-J1-PDC complex spheroid viability
method_summary: Anticancer human tumor 883617-216-R-J1-PDC cell line growth inhibition [POLQ];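 further: spheroids exposed to compounds for seven days before readout; 100% = DMSO vehicle control viability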
experimental_parameters: second compound 1 µM; first compound 1 µM; stronger effect = lower value
readout_type: viability, T/C

Look up and state reported viability, T/C for CCCS(=O)(=O)Nc1ccc(F)c(C(=O)c2c[nH]c3ncc(-c4ccc(Cl)cc4)cc23)c1F + COC1C(OC(N)=O)C(O)C(Oc2ccc3c(O)c(NC(=O)c4ccc(O)c(CC=C(C)C)c4)c(=O)oc3c2C)OC1(C)C 98.5%

Look up and state reported viability, T/C for O=C(c1cc(Cc2n[nH]c(=O)c3ccccc23)ccc1F)N1CCN(C(=O)C2CC2)CC1 + Cc1cccc(N(C)C(=O)C2C(O)CCN2c2nc(C)cc(C(F)(F)F)c2C#N)c1 90.5%

Look up and state reported viability, T/C for CCc1c2c(nc3ccc(O)cc13)-c1cc3c(c(=O)n1C2)COC(=O)[C@]3(O)CC + Cc1cccc(N(C)C(=O)C2C(O)CCN2c2nc(C)cc(C(F)(F)F)c2C#N)c1 20.5%

Look up and state reported viability, T/C for C=CC(=O)N1CCN(c2nc(=O)n(-c3c(C)ccnc3C(C)C)c3nc(-c4c(O)cccc4F)c(F)cc23)C(C)C1 (centres undefined) + Nc1ccc(C#CCN(C(=O)Cc2ncc(C(F)(F)F)cc2C(F)(F)F)c2ccc(F)cc2)nn1 78.3%

Look up and state reported viability, T/C for CC1COCCN1c1cc(-c2ccnn2C)c2ccnc(-c3ccn[nH]3)c2n1 (centres undefined) + Nc1ccc(C#CCN(C(=O)Cc2ncc(C(F)(F)F)cc2C(F)(F)F)c2ccc(F)cc2)nn1 41.7%

Look up and state reported viability, T/C for COc1cccc(OCCCN)c1-c1cc(Nc2cnc(C#N)cn2)n[nH]1 + Nc1ccc(C#CCN(C(=O)Cc2ncc(C(F)(F)F)cc2C(F)(F)F)c2ccc(F)cc2)nn1 28.6%

Look up and state reported viability, T/C for CC1COCCN1c1cc(C2(S(C)(=N)=O)CC2)nc(-c2ccnc3[nH]ccc23)n1 (centres undefined) + Cc1cccc(N(C)C(=O)C2C(O)CCN2c2nc(C)cc(C(F)(F)F)c2C#N)c1 68.4%

Look up and state reported viability, T/C for CCc1cc2c(N3CCc4c(cc(Cn5ccnc5)cc4-c4cn(C)nc4C(F)(F)F)C3=O)cc(C)nc2c(OC)n1 + COC1C(OC(N)=O)C(O)C(Oc2ccc3c(O)c(NC(=O)c4ccc(O)c(CC=C(C)C)c4)c(=O)oc3c2C)OC1(C)C 106%

Look up and state reported viability, T/C for CC(C)n1c(=O)n(C)c2cnc3cc(F)c(-c4ccc(OCCCN5CCCCC5)nc4)cc3c21 + Nc1ccc(C#CCN(C(=O)Cc2ncc(C(F)(F)F)cc2C(F)(F)F)c2ccc(F)cc2)nn1 104%

Look up and state reported viability, T/C for CCc1cc2c(N3CCc4c(cc(Cn5ccnc5)cc4-c4cn(C)nc4C(F)(F)F)C3=O)ccnc2c(OC)n1 + Nc1ccc(C#CCN(C(=O)Cc2ncc(C(F)(F)F)cc2C(F)(F)F)c2ccc(F)cc2)nn1 94.9%

Look up and state reported viability, T/C for CCc1c2c(nc3ccc(O)cc13)-c1cc3c(c(=O)n1C2)COC(=O)[C@]3(O)CC + COC1C(OC(N)=O)C(O)C(Oc2ccc3c(O)c(NC(=O)c4ccc(O)c(CC=C(C)C)c4)c(=O)oc3c2C)OC1(C)C 21.1%

Look up and state reported viability, T/C for CC1COCCN1c1cc(C2(O)CC3CCC(C2)O3)c2cnn(-c3ccn[nH]3)c2n1 (centres undefined) + Cc1cccc(N(C)C(=O)C2C(O)CCN2c2nc(C)cc(C(F)(F)F)c2C#N)c1 33%

Look up and state reported viability, T/C for O=C(Nc1ccc(O)c(NS(=O)(=O)c2ccc(F)cc2)c1)c1ccc(-c2ccccc2)cc1 + Nc1ccc(C#CCN(C(=O)Cc2ncc(C(F)(F)F)cc2C(F)(F)F)c2ccc(F)cc2)nn1 84.3%

Look up and state reported viability, T/C for Nc1ccn(C2OC(CO)C(O)C2(F)F)c(=O)n1 (centres undefined) + COC1C(OC(N)=O)C(O)C(Oc2ccc3c(O)c(NC(=O)c4ccc(O)c(CC=C(C)C)c4)c(=O)oc3c2C)OC1(C)C 41.7%

----------
Test system: 883617-216-R-J1-PDC complex spheroid viability
method_summary: Anticancer human tumor 883617-216-R-J1-PDC cell line growth inhibition [POLQ];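 further: spheroids exposed to compounds for seven days before readout; 100% = DMSO vehicle control viability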
experimental_parameters: second compound 3.16 µM; first compound 0.316 µM; stronger effect = lower value
readout_type: viability, T/C (%)
State just the number; it will be interpreted in %.

Look up and state reported viability, T/C for CC(C)n1c(=O)n(C)c2cnc3cc(F)c(-c4ccc(OCCCN5CCCCC5)nc4)cc3c21 + Cc1cccc(N(C)C(=O)C2C(O)CCN2c2nc(C)cc(C(F)(F)F)c2C#N)c1 105

Look up and state reported viability, T/C for O=c1[nH]cc(F)c(=O)[nH]1 + COC1C(OC(N)=O)C(O)C(Oc2ccc3c(O)c(NC(=O)c4ccc(O)c(CC=C(C)C)c4)c(=O)oc3c2C)OC1(C)C 95.5

Look up and state reported viability, T/C for CNCc1ccc(-c2[nH]c3cc(F)cc4c3c2CCNC4=O)cc1 + COC1C(OC(N)=O)C(O)C(Oc2ccc3c(O)c(NC(=O)c4ccc(O)c(CC=C(C)C)c4)c(=O)oc3c2C)OC1(C)C 102

----------
Give measured viability, T/C for each item. Keep answers brief.
Tested on: 883617-216-R-J1-PDC complex spheroid viability
method_summary: Anticancer human tumor 883617-216-R-J1-PDC cell line growth inhibition [POLQ];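 further: spheroids exposed to compounds for seven days before readout; 100% = DMSO vehicle control viability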
experimental_parameters: second compound 1 µM; first compound 0.316 µM; stronger effect = lower value
State just the number; it will be interpreted in %.

Look up and state reported viability, T/C for O=c1[nH]cc(F)c(=O)[nH]1 + Nc1ccc(C#CCN(C(=O)Cc2ncc(C(F)(F)F)cc2C(F)(F)F)c2ccc(F)cc2)nn1 99.2

Look up and state reported viability, T/C for COc1cc2cc(C(=O)CCC(=O)O)sc2cc1OC + Cc1cccc(N(C)C(=O)C2C(O)CCN2c2nc(C)cc(C(F)(F)F)c2C#N)c1 90.2

Look up and state reported viability, T/C for COc1cc(C2c3cc4c(cc3C(OC3OC5COC(C)OC5C(O)C3O)C3COC(=O)C23)OCO4)cc(OC)c1O (stereo unspecified) + Cc1cccc(N(C)C(=O)C2C(O)CCN2c2nc(C)cc(C(F)(F)F)c2C#N)c1 76.9

Look up and state reported viability, T/C for CC1COCCN1c1cc(C2(S(C)(=N)=O)CC2)nc(-c2ccnc3[nH]ccc23)n1 (stereo unspecified) + COC1C(OC(N)=O)C(O)C(Oc2ccc3c(O)c(NC(=O)c4ccc(O)c(CC=C(C)C)c4)c(=O)oc3c2C)OC1(C)C 91.2

Look up and state reported viability, T/C for COc1cccc(OCCCN)c1-c1cc(Nc2cnc(C#N)cn2)n[nH]1 + Nc1ccc(C#CCN(C(=O)Cc2ncc(C(F)(F)F)cc2C(F)(F)F)c2ccc(F)cc2)nn1 40

Look up and state reported viability, T/C for CC1COCCN1c1cc(-c2ccnn2C)c2ccnc(-c3ccn[nH]3)c2n1 (stereo unspecified) + Nc1ccc(C#CCN(C(=O)Cc2ncc(C(F)(F)F)cc2C(F)(F)F)c2ccc(F)cc2)nn1 51.7

----------
Give measured viability, T/C for each item. Keep answers brief.
System: 883617-216-R-J1-PDC complex spheroid viability
method_summary: Anticancer human tumor 883617-216-R-J1-PDC cell line growth inhibition [POLQ];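 further: spheroids exposed to compounds for seven days before readout; 100% = DMSO vehicle control viability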
experimental_parameters: second compound 10 µM; first compound 10 µM; stronger effect = lower value
State just the number; it will be interpreted in %.

Look up and state reported viability, T/C for Nc1ccn(C2OC(CO)C(O)C2(F)F)c(=O)n1 (stereo unspecified) + Cc1cccc(N(C)C(=O)C2C(O)CCN2c2nc(C)cc(C(F)(F)F)c2C#N)c1 31.7

Look up and state reported viability, T/C for CC1COCCN1c1cc(C2(S(C)(=N)=O)CC2)nc(-c2ccnc3[nH]ccc23)n1 (stereo unspecified) + Cc1cccc(N(C)C(=O)C2C(O)CCN2c2nc(C)cc(C(F)(F)F)c2C#N)c1 37.8

Look up and state reported viability, T/C for CCCS(=O)(=O)Nc1ccc(F)c(C(=O)c2c[nH]c3ncc(-c4ccc(Cl)cc4)cc23)c1F + Cc1cccc(N(C)C(=O)C2C(O)CCN2c2nc(C)cc(C(F)(F)F)c2C#N)c1 61.3

Look up and state reported viability, T/C for C=CC(=O)N1CCN(c2nc(=O)n(-c3c(C)ccnc3C(C)C)c3nc(-c4c(O)cccc4F)c(F)cc23)C(C)C1 (stereo unspecified) + Cc1cccc(N(C)C(=O)C2C(O)CCN2c2nc(C)cc(C(F)(F)F)c2C#N)c1 82.7

Look up and state reported viability, T/C for O=c1[nH]cc(F)c(=O)[nH]1 + COC1C(OC(N)=O)C(O)C(Oc2ccc3c(O)c(NC(=O)c4ccc(O)c(CC=C(C)C)c4)c(=O)oc3c2C)OC1(C)C 78.2

Look up and state reported viability, T/C for COc1cc(C2c3cc4c(cc3C(OC3OC5COC(C)OC5C(O)C3O)C3COC(=O)C23)OCO4)cc(OC)c1O (stereo unspecified) + Cc1cccc(N(C)C(=O)C2C(O)CCN2c2nc(C)cc(C(F)(F)F)c2C#N)c1 55.5

Look up and state reported viability, T/C for CCc1cc2c(N3CCc4c(cc(Cn5ccnc5)cc4-c4cn(C)nc4C(F)(F)F)C3=O)cc(C)nc2c(OC)n1 + Cc1cccc(N(C)C(=O)C2C(O)CCN2c2nc(C)cc(C(F)(F)F)c2C#N)c1 45.9

Look up and state reported viability, T/C for O=C(Nc1ccc(O)c(NS(=O)(=O)c2ccc(F)cc2)c1)c1ccc(-c2ccccc2)cc1 + Cc1cccc(N(C)C(=O)C2C(O)CCN2c2nc(C)cc(C(F)(F)F)c2C#N)c1 57.1

Look up and state reported viability, T/C for CCCS(=O)(=O)Nc1ccc(F)c(C(=O)c2c[nH]c3ncc(-c4ccc(Cl)cc4)cc23)c1F + COC1C(OC(N)=O)C(O)C(Oc2ccc3c(O)c(NC(=O)c4ccc(O)c(CC=C(C)C)c4)c(=O)oc3c2C)OC1(C)C 45.4

Look up and state reported viability, T/C for CNCc1ccc(-c2[nH]c3cc(F)cc4c3c2CCNC4=O)cc1 + Cc1cccc(N(C)C(=O)C2C(O)CCN2c2nc(C)cc(C(F)(F)F)c2C#N)c1 93.3

Look up and state reported viability, T/C for CCc1cc2c(N3CCc4c(cc(Cn5ccnc5)cc4-c4cn(C)nc4C(F)(F)F)C3=O)cc(C)nc2c(OC)n1 + Nc1ccc(C#CCN(C(=O)Cc2ncc(C(F)(F)F)cc2C(F)(F)F)c2ccc(F)cc2)nn1 48.8

Look up and state reported viability, T/C for CCc1cc2c(N3CCc4c(cc(Cn5ccnc5)cc4-c4cn(C)nc4C(F)(F)F)C3=O)cc(C)nc2c(OC)n1 + COC1C(OC(N)=O)C(O)C(Oc2ccc3c(O)c(NC(=O)c4ccc(O)c(CC=C(C)C)c4)c(=O)oc3c2C)OC1(C)C 59.4

Look up and state reported viability, T/C for Nc1ccn(C2OC(CO)C(O)C2(F)F)c(=O)n1 (stereo unspecified) + Nc1ccc(C#CCN(C(=O)Cc2ncc(C(F)(F)F)cc2C(F)(F)F)c2ccc(F)cc2)nn1 37.6

Look up and state reported viability, T/C for O=C(Nc1ccc(O)c(NS(=O)(=O)c2ccc(F)cc2)c1)c1ccc(-c2ccccc2)cc1 + COC1C(OC(N)=O)C(O)C(Oc2ccc3c(O)c(NC(=O)c4ccc(O)c(CC=C(C)C)c4)c(=O)oc3c2C)OC1(C)C 70.4

Look up and state reported viability, T/C for CC1COCCN1c1cc(C2(O)CC3CCC(C2)O3)c2cnn(-c3ccn[nH]3)c2n1 (stereo unspecified) + Nc1ccc(C#CCN(C(=O)Cc2ncc(C(F)(F)F)cc2C(F)(F)F)c2ccc(F)cc2)nn1 35.3

Look up and state reported viability, T/C for COc1cc2cc(C(=O)CCC(=O)O)sc2cc1OC + Cc1cccc(N(C)C(=O)C2C(O)CCN2c2nc(C)cc(C(F)(F)F)c2C#N)c1 117

Look up and state reported viability, T/C for CCCS(=O)(=O)Nc1ccc(F)c(C(=O)c2c[nH]c3ncc(-c4ccc(Cl)cc4)cc23)c1F + Nc1ccc(C#CCN(C(=O)Cc2ncc(C(F)(F)F)cc2C(F)(F)F)c2ccc(F)cc2)nn1 57.6

Look up and state reported viability, T/C for Nc1ccn(C2OC(CO)C(O)C2(F)F)c(=O)n1 (stereo unspecified) + COC1C(OC(N)=O)C(O)C(Oc2ccc3c(O)c(NC(=O)c4ccc(O)c(CC=C(C)C)c4)c(=O)oc3c2C)OC1(C)C 32.1

Look up and state reported viability, T/C for O=C(c1cc(Cc2n[nH]c(=O)c3ccccc23)ccc1F)N1CCN(C(=O)C2CC2)CC1 + Cc1cccc(N(C)C(=O)C2C(O)CCN2c2nc(C)cc(C(F)(F)F)c2C#N)c1 77.5

Look up and state reported viability, T/C for C=CC(=O)N1CCN(c2nc(=O)n(-c3c(C)ccnc3C(C)C)c3nc(-c4c(O)cccc4F)c(F)cc23)C(C)C1 (stereo unspecified) + COC1C(OC(N)=O)C(O)C(Oc2ccc3c(O)c(NC(=O)c4ccc(O)c(CC=C(C)C)c4)c(=O)oc3c2C)OC1(C)C 91.4

Look up and state reported viability, T/C for CC(C)n1c(=O)n(C)c2cnc3cc(F)c(-c4ccc(OCCCN5CCCCC5)nc4)cc3c21 + COC1C(OC(N)=O)C(O)C(Oc2ccc3c(O)c(NC(=O)c4ccc(O)c(CC=C(C)C)c4)c(=O)oc3c2C)OC1(C)C 72.8
